assay-target: IDO1 (Homo sapiens)
Construct: HeLa cells were treated with a test compound in the presence of IFNγ, which induces IDO1 expression
Sequence (P14902 whole entry): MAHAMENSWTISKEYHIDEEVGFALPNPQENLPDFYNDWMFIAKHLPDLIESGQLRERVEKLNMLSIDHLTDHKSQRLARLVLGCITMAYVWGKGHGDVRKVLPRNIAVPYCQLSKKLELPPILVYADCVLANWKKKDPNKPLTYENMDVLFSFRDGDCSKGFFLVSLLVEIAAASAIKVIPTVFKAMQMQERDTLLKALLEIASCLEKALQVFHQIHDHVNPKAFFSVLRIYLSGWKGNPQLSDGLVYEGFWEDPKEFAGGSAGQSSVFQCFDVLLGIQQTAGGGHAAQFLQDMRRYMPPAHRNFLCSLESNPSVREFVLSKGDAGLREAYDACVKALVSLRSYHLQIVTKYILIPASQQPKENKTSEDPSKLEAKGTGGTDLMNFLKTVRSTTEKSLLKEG
assay-remarks: Cell-based (HeLa) assay for measurement of IDO1 inhibition (kynurenine levels in supernatant)
protocol-conditions: H1-HeLa cells, IDO1 induced with IFNγ, 48 hour incubation, kynurenine read by absorbance at 480 nm; geometric mean of a minimum of four determinations
readout-label: EC50 (µM)
Give the value, in units of µM, as a plain number.

// known answers, use as guide
>  <smiles-text>
CC1(C)C(=O)N(c2ncccn2)c2cccc(-c3cnc(C(F)(F)F)c(C(=O)Nc4ccc(F)cc4)c3)c21

>  <EC50 / µM>
0.017

$$$$
>  <smiles-text>
CC1(C)C(=O)N(c2ncccn2)c2cccc(-c3ccc(C(F)(F)F)c(C(=O)Nc4ccnnc4)c3)c21

>  <EC50 / µM>
0.283

$$$$
>  <smiles-text>
Cc1ccc(-c2cccc3c2C(C)(C)C(=O)N3Cc2ncccn2)cc1C(=O)Nc1ccc(F)cc1

>  <EC50 / µM>
1.02

$$$$
>  <smiles-text>
CC1(C)C(=O)N(c2cccnc2)c2cccc(-c3cnc(C(F)(F)F)c(C(=O)Nc4ccc(F)cc4)c3)c21

>  <EC50 / µM>
0.026

$$$$
>  <smiles-text>
CC1(C)C(=O)N(c2ccccn2)c2nccc(-c3ccc(C(F)(F)F)c(C(=O)Nc4ccc(F)c(F)c4)c3)c21

>  <EC50 / µM>
0.063

$$$$
>  <smiles-text>
CC1(C)C(=O)N(c2ncccn2)c2nccc(-c3ccc(C(F)(F)F)c(C(=O)Nc4ccc(F)c(F)c4)c3)c21

>  <EC50 / µM>
0.05

$$$$

Next item in the queue.
API: value(readout= EC50, system= IDO1 (Homo sapiens), query= `CC1(C)C(=O)N(c2ncccn2)c2cccc(-c3cc(C(=O)Nc4ccc(F)cc4)c(C(F)(F)F)cn3)c21` )
0.039
